tested_target: Human plasmin (Homo sapiens, UniProt P00747)
Construct: Human plasmin is purchased from Boehringer Mannheim, Indianapolis, Ind; purchased Boehringer Mannheim, Indianapolis, Ind
Sequence (P00747 581-810 limits assumed): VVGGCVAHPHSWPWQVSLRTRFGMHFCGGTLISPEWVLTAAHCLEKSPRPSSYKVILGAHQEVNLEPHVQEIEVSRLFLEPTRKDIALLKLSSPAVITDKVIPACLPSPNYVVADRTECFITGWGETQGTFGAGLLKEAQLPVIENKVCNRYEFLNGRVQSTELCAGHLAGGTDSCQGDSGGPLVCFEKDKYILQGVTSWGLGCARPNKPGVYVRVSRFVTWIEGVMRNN
Sequence (P00747 97-580 partner limits assumed): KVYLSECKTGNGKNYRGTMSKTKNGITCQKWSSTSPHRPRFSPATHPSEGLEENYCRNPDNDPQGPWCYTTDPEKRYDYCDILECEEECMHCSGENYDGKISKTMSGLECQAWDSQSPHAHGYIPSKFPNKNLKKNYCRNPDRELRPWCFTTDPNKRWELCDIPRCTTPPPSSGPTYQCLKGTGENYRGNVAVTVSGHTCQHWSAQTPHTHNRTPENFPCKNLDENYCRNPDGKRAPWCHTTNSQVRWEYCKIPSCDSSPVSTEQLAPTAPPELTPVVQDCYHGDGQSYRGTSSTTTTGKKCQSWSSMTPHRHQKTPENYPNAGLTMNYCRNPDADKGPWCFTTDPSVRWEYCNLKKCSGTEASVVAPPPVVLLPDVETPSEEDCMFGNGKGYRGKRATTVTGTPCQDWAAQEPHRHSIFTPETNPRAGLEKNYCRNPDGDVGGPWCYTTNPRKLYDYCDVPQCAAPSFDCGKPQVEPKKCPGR
experimental_protocol: Serine protease inhibition, plasmin (chromogenic substrate), Kass
Type: biochemical
details: substrate H-D-Val-Leu-Lys-p-nitroanilide
Non-standard residues stand in square brackets, D forms with d. Residues, ends and D or L forms follow the SMILES beside them. dNMeCha = CN[C@H](CC1CCCCC1)C(=O)O
assay_readout: Enzyme Kass, Plasmin (L/mol × 10^6)
Numbers only; they are read as L/mol × 10^6.

These solved cases illustrate the format of a correct answer.
{"compound": "CCCS(=O)(=O)N[C@H](Cc1ccccc1)C(=O)N1CCC[C@H]1C(=O)N[C@H](C=O)CCCNC(=N)N.Cl [Example 9, n-Pr-SO2 -D-Phe-Pro-Arg-H.HCl]", "value_unit": "L/mol × 10^6", "Enzyme Kass, Plasmin": 29}
{"compound": "CN[C@H](CC1CCCCC1)C(=O)N1CCC[C@H]1C(=O)N[C@H](C=O)CCCNC(=N)N.Cl [Example 31, Me-D-Cha-Pro-Arg-H.HCl] (H-[dNMeCha]-Pro-Arg-aldehyde)", "value_unit": "L/mol × 10^6", "Enzyme Kass, Plasmin": 7.7}
{"compound": "Cc1noc(C)c1S(=O)(=O)N[C@H](Cc1ccccc1)C(=O)N1CCC[C@H]1C(=O)N[C@H](C=O)CCCNC(=N)N.Cl", "value_unit": "L/mol × 10^6", "Enzyme Kass, Plasmin": 18}
{"compound": "CC(C)S(=O)(=O)N[C@H](Cc1ccccc1)C(=O)N1CCC[C@H]1C(=O)N[C@H](C=O)CCCNC(=N)N.Cl [Example 11, i-Pr-SO2 -D-Phe-Pro-Arg-H-HCl]", "value_unit": "L/mol × 10^6", "Enzyme Kass, Plasmin": 25}
{"compound": "COc1ccc(OC)c(S(=O)(=O)N[C@H](Cc2ccccc2)C(=O)N2CCC[C@H]2C(=O)N[C@H](C=O)CCCNC(=N)N)c1.Cl [Example 15, 2,5-(MeO)2 -PhSO2 -D-Phe-Pro-Arg-H-HCl]", "value_unit": "L/mol × 10^6", "Enzyme Kass, Plasmin": 9.5}

Query: Field request: Enzyme Kass, Plasmin | item: CCS(=O)(=O)N[C@H](CC1CCCCC1)C(=O)N1CCC[C@H]1C(=O)N[C@H](C=O)CCCNC(=N)N.Cl [Example 21, EtSO2 -D-Cha-Pro-Arg-H.HCl]
Result: 45

Query: Proceed to CCS(=O)(=O)N[C@@H](C(=O)N1CCC[C@H]1C(=O)N[C@H](C=O)CCCNC(=N)N)C1CCCCC1.Cl [Example 22, EtSO2 -D-Chg-Pro-Arg-H.HCl]
Result: 13

Query: Proceed to Cl.NC(N)=NCCCC(C=O)NC(=O)C1CCCN1C(=O)C(Cc1ccccc1)NC(=O)Cc1cccnc1 (centres unmarked)
Result: 0.27

Query: Proceed to Cl.N=C(N)NCCC[C@@H](C=O)NC(=O)[C@@H]1CCCN1C(=O)[C@@H](Cc1ccccc1)NC(=O)c1cccnc1 [Example 3, N-Nicotinoyl-D-Phe-Pro-Arg-H.HCl]
Result: 0.41

Query: Proceed to Cl.Cn1c(C(=O)NC(Cc2ccccc2)C(=O)N2CCCC2C(=O)NC(C=O)CCCN=C(N)N)cc2ccccc21 [Example 1, NMI-D-Phe-Pro-Arg-H.HCl]
Result: 7.9

Query: Proceed to Cl.N=C(N)NCCC[C@@H](C=O)NC(=O)[C@@H]1CCCN1C(=O)[C@@H](Cc1ccccc1)NS(=O)(=O)c1ccccc1 [Example 13, PhSO2 -D-Phe-Pro-Arg-H.HCl]
Result: 19
